Each entry below carries its recorded growth.
- Test system: MALME-3M melanoma
- assayExplanation: NCI-60 one-dose screen, 48 h (100 = growth as untreated, 0 = no growth, -100 = all killed)
- conditionsUsed: 10 µM unless noted
About 83,000 compounds went through this panel and 20% of them were active in at least one assay; those are over-represented in the sample as a whole.
Write the value in % as a bare number.

For orientation, consider the following solved cases.
{"columns": ["molecule", "testTarget", "testResult"],
 "data": [
  ["O=c1cc(-c2ccccc2)[nH]c2ncc(-c3ccc(F)cc3)n12", "MALME-3M melanoma", 77.8],
  ["N#CC1CCc2c(c(-c3ccc4nc(N)sc4c3)nc3ccc4[nH]ncc4c23)C1 (stereo not drawn)", "MALME-3M melanoma", 68.8]
]}

-- ask Query: growth; subject: NC(=O)c1cccc([C@@H]2O[C@H](CO)[C@@H](O)[C@H]2O)c1
-- reply 103
